protocol text: self-splicing fitness, log relative to wild type (ln ratio); higher = more splicing; Tetrahymena group I intron in knt gene, E. coli kanamycin selection, DiMSum; sequences stand for … in CUCUCU…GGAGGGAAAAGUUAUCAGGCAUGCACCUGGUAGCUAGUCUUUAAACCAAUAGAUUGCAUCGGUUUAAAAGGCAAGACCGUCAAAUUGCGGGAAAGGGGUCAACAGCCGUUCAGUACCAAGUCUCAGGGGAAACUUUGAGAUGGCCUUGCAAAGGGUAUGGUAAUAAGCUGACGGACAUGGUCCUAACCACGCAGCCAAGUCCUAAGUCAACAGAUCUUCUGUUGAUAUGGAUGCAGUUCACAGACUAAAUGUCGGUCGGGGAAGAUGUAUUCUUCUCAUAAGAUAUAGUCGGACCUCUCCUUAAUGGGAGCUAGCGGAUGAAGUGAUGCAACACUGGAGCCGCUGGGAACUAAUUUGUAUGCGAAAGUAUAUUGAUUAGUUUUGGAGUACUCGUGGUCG;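 further: selection with 25 µg/mL kanamycin versus none on LB agar overnight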
condition context: 37 °C
assay endpoint: self-splicing fitness (ln)
Lab note: record the figure alone, no unit after it.

Examples from the recorded data:
Consider the sequence shown here: UCCAAGCAAUAUUACGUUCG What is its recorded self-splicing fitness (ln)?
-2.2

So what does the record say about self-splicing fitness (ln) for GGCAAGCAAUAUUACGGCGG ?
-1.13

For the sequence AAAUAGCAAUAUUACGAGAU , what self-splicing fitness (ln) is on record?
-1.47

---
Please give the measured self-splicing fitness (ln) for this sequence: AAAUAGCAAUAUUACGAGGG
-3.61

// lookup self-splicing fitness (ln) for UUCAAGCAAUAUUACGUUCU
-2.14

self-splicing fitness (ln) for UUUAAGCAAUAUUACGACGU ?
-0.17

Would you kindly share the measured self-splicing fitness (ln) for UGCCAGCAAUAUUACGAAUG ?
0.0957

----------
# self-splicing fitness (ln) per entry
protocol text: self-splicing fitness, log relative to wild type (ln ratio); higher = more splicing; Tetrahymena group I intron in knt gene, E. coli kanamycin selection, DiMSum; sequences stand for … in CUCUCU…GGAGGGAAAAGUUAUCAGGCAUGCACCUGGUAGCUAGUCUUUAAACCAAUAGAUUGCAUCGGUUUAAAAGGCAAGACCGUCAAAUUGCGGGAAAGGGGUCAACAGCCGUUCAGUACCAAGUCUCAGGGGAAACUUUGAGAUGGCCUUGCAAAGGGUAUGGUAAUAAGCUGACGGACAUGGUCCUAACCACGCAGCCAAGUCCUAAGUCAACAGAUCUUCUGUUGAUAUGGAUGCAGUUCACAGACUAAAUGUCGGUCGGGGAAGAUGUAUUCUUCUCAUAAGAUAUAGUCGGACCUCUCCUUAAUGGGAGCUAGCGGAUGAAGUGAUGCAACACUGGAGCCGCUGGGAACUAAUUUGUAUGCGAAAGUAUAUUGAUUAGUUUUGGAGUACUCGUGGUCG
condition context: 30 °C
Enter a number only.

Recorded self-splicing fitness (ln) for UACCAGCAAUAUUACGCCAU , please?
-3.27

----------
We begin with a simple list: items and their reported self-splicing fitness (ln).
protocol text: self-splicing fitness, log relative to wild type (ln ratio); higher = more splicing; Tetrahymena group I intron in knt gene, E. coli kanamycin selection, DiMSum; sequences stand for … in CUCUCU…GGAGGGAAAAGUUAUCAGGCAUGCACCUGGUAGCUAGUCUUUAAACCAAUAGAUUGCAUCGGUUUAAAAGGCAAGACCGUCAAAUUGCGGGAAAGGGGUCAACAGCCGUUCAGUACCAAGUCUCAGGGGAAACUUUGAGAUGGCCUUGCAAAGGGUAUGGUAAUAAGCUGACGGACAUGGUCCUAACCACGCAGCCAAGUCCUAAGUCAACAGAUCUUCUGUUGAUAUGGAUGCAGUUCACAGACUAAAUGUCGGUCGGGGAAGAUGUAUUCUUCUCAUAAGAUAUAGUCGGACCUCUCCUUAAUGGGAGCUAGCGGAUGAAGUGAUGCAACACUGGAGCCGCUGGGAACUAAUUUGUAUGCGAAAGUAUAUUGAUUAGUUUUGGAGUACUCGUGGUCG
condition context: 30 °C
Give your answer as a number; write no unit.

Consider the reported self-splicing fitness (ln) for these sequences:
Consider the sequence GUCGAGCAAUAUUACGCAUU and give its measured self-splicing fitness (ln).
-2.45

So what does the record say about self-splicing fitness (ln) for UACGAGCAAUAUUACGUUCG ?
-3.48

Using the record for UGCUAGCAAUAUUACGAACG , report its self-splicing fitness (ln).
-0.171

Find the recorded self-splicing fitness (ln) belonging to ACCGAGCAAUAUUACGCUGA and report it.
-3.32

# self-splicing fitness (ln) lookup, item UCCCAGCAAUAUUACGUUGC
-3.5

Consider the sequence shown here: UCCUAGCAAUAUUACGCGUC What is its recorded self-splicing fitness (ln)?
-3.53

// returns reported self-splicing fitness (ln) for input AGUGAGCAAUAUUACGCACU
-2.97

May I ask what self-splicing fitness (ln) has been recorded for CAUAAGCAAUAUUACGCACU ?
-2.12

Given the entry CGGAAGCAAUAUUACGGUGG , report its measured self-splicing fitness (ln).
-0.759

Entry UAUCAGCAAUAUUACGGCAC : reported self-splicing fitness (ln) = ?
-2.52

More entries:
Give the measured self-splicing fitness (ln) of AUACAGCAAUAUUACGAAGA .
-3.16

Request the reported self-splicing fitness (ln) associated with UCCGAGCAAUAUUACGACGG
-1.46

// query self-splicing fitness (ln) value for entry UCCAAGCAAUAUUACGCAAU
-3.44

I have this sequence here, UGCUAGCAAUAUUACGUCGC , and I need its recorded self-splicing fitness (ln).
-3.37

What value of measured self-splicing fitness (ln) is listed for AGAAAGCAAUAUUACGGUGC ?
-2.39

// self-splicing fitness (ln) lookup, key: UACCAGCAAUAUUACGGUGU
-3.64

Name the recorded self-splicing fitness (ln) for UGCUAGCAAUAUUACGUUCA .
-0.255

For the sequence AAGAAGCAAUAUUACGGACG , what self-splicing fitness (ln) is on record?
-0.677

Requested field: self-splicing fitness (ln). Item: AUGUAGCAAUAUUACGUGCA
-0.921

----------
protocol text: self-splicing fitness, log relative to wild type (ln ratio); higher = more splicing; Tetrahymena group I intron in knt gene, E. coli kanamycin selection, DiMSum; sequences stand for … in CUCUCU…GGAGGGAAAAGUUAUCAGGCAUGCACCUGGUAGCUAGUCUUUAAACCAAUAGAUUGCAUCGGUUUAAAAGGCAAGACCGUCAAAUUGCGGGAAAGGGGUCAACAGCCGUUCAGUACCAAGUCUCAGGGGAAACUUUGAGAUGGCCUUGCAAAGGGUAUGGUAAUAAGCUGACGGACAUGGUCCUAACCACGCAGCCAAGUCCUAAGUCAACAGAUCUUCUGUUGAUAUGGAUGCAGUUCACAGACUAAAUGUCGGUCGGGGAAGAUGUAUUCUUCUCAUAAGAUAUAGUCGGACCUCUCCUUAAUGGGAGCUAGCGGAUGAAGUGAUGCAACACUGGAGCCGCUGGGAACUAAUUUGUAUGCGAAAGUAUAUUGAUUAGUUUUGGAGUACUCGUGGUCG
condition context: 30 °C
assay endpoint: self-splicing fitness (ln)
# print the numeric value only

Here are 5 sequences together with their reported answers.
Find the recorded self-splicing fitness (ln) belonging to AGAUAGCAAUAUUACGAGCG and report it.
-0.464

Need self-splicing fitness (ln) of GCCUAGCAAUAUUACGUGUA , thanks.
-1.55

Suppose we examine the sequence GCCAAGCAAUAUUACGGAGA ; what self-splicing fitness (ln) value has been reported?
-1.45

Looking for the measured self-splicing fitness (ln) of AGCUAGCAAUAUUACGGUCG , can you help?
-0.942

Bench note: what self-splicing fitness (ln) did CCGCAGCAAUAUUACGGGAU show?
-4.16

Shifting focus to the sequence that follows.
Query (sequence): UGCAAGCAAUAUUACGGGCU ; field requested: self-splicing fitness (ln)
-1.12

----------
protocol text: self-splicing fitness, log relative to wild type (ln ratio); higher = more splicing; Tetrahymena group I intron in knt gene, E. coli kanamycin selection, DiMSum; sequences stand for … in CUCUCU…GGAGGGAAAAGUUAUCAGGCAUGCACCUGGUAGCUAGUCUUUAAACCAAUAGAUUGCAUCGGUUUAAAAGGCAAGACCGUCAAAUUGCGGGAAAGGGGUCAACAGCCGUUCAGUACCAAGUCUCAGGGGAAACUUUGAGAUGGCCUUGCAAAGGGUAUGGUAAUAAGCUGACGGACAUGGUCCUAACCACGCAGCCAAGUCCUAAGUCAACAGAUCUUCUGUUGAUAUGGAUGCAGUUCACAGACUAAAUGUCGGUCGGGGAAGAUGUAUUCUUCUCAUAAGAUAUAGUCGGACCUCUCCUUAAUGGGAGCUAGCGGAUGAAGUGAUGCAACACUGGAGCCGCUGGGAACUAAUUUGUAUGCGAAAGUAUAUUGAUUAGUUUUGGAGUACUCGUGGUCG
condition context: 30 °C
The following sequences are listed with their measured self-splicing fitness (ln) values.
// return just the number, without any unit appended

Answered cases to consult:
Sample ACCCAGCAAUAUUACGACGG — what was its self-splicing fitness (ln)?
-1.39

Sample UUUGAGCAAUAUUACGGAUU — what was its self-splicing fitness (ln)?
-3.69

Look up self-splicing fitness (ln) for this sequence: CCGUAGCAAUAUUACGAACU
-3.64

Data request, read-out self-splicing fitness (ln), for ACACAGCAAUAUUACGCUAA
-2.03

Quick one: self-splicing fitness (ln) for AUCUAGCAAUAUUACGUGAG ?
-0.412

Further cases:
Please look up its self-splicing fitness (ln): CAUUAGCAAUAUUACGUAGU
-3.66

Name the reported self-splicing fitness (ln) value associated with the sequence GAGAAGCAAUAUUACGGACA
-0.633

Find the recorded self-splicing fitness (ln) belonging to GUCUAGCAAUAUUACGGCGA and report it.
-0.49

What does the data say about its self-splicing fitness (ln)? Entry: AAAAAGCAAUAUUACGGCUG
-0.648

Request the reported self-splicing fitness (ln) associated with ACACAGCAAUAUUACGGCCC
-1.48

Value lookup for self-splicing fitness (ln); key = ACCUAGCAAUAUUACGGUUU
-1.85
